- testName: Quantitative nitrite assay for NO release (Griess)
- Assay type: biochemical
- measurementSetup: 100 μM, L-cysteine, pH 7.4, 60 min 37° C.
- Protocol: Quantitative nitrite assays for NO release. A solution of nitrone 23 (final concentration 100 μM) (20 μL), dissolved in DMSO, was added to 2 mL of 50 mM phosphate buffer (pH=7.4) containing the appropriate amount of thiol cofactor 1 mM (L-cysteine). […] After the mixture stood for 10 min at rt, absorbance was recorded at 540 nm. […] The yield in nitrite (NO2^− release) for nitrone 23, as function of L-cysteine (mM concentration) is given in Table 1, expressed as % NO2^− (mol/mol). […]
propertyLabel: NO2− (%) (mol/mol)

| molecule | result |
| --- | --- |
| CC(C)(C)/[N+]([O-])=C/c1ccc(S(=O)(=O)O)cc1S(=O)(=O)O [Compound 2, reference compound] | 1 % (mol/mol) |
| COc1ccc2nc(Cl)c(C=O)cc2c1 [Compound 32, reference compound] | 2.5 % (mol/mol) |
| COc1ccc2nc(Cl)c(/C=[N+](\[O-])Cc3ccccc3)cc2c1 | 12.5 % (mol/mol) |
| COc1ccc2nc(Cl)c(/C=[N+](\[O-])C(C)(C)C)cc2c1 | 3 % (mol/mol) |
| COc1ccc2nc(Cl)c(/C=[N+](/C)[O-])cc2c1 | 11 % (mol/mol) |
| CC(C)(C)/[N+]([O-])=C/c1cc2ccccc2nc1Cl | 7.5 % (mol/mol) |
